ASSAY DETAILS: Extraction of isobutanol from an aqueous solution by ionic liquid (HPLC)
Assay type: physicochemical
CONDITION CONTEXT: isobutanol in aqueous solution after mixing 3 mL of about 31 g/L isobutanol with 150 microliters (5 vol %) ionic liquid, overnight equilibration; control 436
REPORTED PROPERTY: mM isobutanol (mM)
Field format: number, assumed mM, no unit text.

Worked set:
{"MOLECULE": "COCC[N+](C)(C)CCN1C(=O)CCC1C.O=S(=O)([N-]S(=O)(=O)C(F)(F)F)C(F)(F)F (stereo not shown)", "REPORTED PROPERTY": "mM isobutanol", "VALUE REPORTED": 389}
{"MOLECULE": "CCC[N+](C)(C)CCN1C(=O)CCC1C.O=S(=O)([N-]S(=O)(=O)C(F)(F)F)C(F)(F)F (stereo not shown)", "REPORTED PROPERTY": "mM isobutanol", "VALUE REPORTED": 387}
{"MOLECULE": "COCC[N+](C)(C)CCN1C(=O)CCC1C (stereo not shown)", "REPORTED PROPERTY": "mM isobutanol", "VALUE REPORTED": 423}

Q: Using the record for CC1CCC(=O)N1CC[N+](C)(C)CCO.O=S(=O)([N-]S(=O)(=O)C(F)(F)F)C(F)(F)F (stereo not shown) , report its mM isobutanol.
A: 417
